# target_of_assay: RIOK3 (human)
# method_notes: KINOMEscan competition binding
# settings: compound 10.0 µM
Measured kinase still bound, per cent of control, listed per entry for reference.
// units = %; emit number, no label

Solved entries:
The reported value for `O=C1NC(=O)/C(=C/c2ccc3nccc(-c4ccncc4)c3c2)S1` in terms of kinase still bound, per cent of control is 1.4

Just so you know, measured kinase still bound, per cent of control for `CNC(=O)c1ccc(Nc2cc(Nc3ccccc3S(=O)(=O)C(C)C)c3cc[nH]c3n2)nc1` came out at 2.9

Reported kinase still bound, per cent of control ( `CS(=O)(=O)N1CCN(Cc2cc3nc(-c4cccc5[nH]ncc45)nc(N4CCOCC4)c3s2)CC1` ) = 100

kinase still bound, per cent of control reading for `CCN(CC)CCCCNc1ncc2c(n1)N(C)C(=O)N(c1c(Cl)c(OC)cc(OC)c1Cl)C2` : 100

According to the records, this molecule `CCN(CC)CCCCNc1ncc2cc(-c3cc(OC)cc(OC)c3)c(NC(=O)NC(C)(C)C)nc2n1` displays kinase still bound, per cent of control of 100

Noted for `O=c1cc(N2CCOCC2)oc2c(-c3cccc4c3sc3ccccc34)cccc12` : its kinase still bound, per cent of control reads 100

Continuing:
Notebook: `COc1cc2ncnc(-n3nc(-c4ccccn4)nc3N)c2cc1OC` , kinase still bound, per cent of control read as 32

Looking up `C[C@@H](Oc1cc(-c2cnn(C3CCNCC3)c2)cnc1N)c1c(Cl)ccc(F)c1Cl` , I see its kinase still bound, per cent of control listed as 3.4

Item: `Cc1n[nH]c2ccc(-c3cncc(OC[C@@H](N)Cc4c[nH]c5ccccc45)c3)cc12` | kinase still bound, per cent of control: 2.7
